Each entry below carries its reported PI3Ka IC50.
- target.system: PI3Kα (p110α/p85α) (Homo sapiens (Human), UniProt P42336)
- Sequence (P42336 whole entry): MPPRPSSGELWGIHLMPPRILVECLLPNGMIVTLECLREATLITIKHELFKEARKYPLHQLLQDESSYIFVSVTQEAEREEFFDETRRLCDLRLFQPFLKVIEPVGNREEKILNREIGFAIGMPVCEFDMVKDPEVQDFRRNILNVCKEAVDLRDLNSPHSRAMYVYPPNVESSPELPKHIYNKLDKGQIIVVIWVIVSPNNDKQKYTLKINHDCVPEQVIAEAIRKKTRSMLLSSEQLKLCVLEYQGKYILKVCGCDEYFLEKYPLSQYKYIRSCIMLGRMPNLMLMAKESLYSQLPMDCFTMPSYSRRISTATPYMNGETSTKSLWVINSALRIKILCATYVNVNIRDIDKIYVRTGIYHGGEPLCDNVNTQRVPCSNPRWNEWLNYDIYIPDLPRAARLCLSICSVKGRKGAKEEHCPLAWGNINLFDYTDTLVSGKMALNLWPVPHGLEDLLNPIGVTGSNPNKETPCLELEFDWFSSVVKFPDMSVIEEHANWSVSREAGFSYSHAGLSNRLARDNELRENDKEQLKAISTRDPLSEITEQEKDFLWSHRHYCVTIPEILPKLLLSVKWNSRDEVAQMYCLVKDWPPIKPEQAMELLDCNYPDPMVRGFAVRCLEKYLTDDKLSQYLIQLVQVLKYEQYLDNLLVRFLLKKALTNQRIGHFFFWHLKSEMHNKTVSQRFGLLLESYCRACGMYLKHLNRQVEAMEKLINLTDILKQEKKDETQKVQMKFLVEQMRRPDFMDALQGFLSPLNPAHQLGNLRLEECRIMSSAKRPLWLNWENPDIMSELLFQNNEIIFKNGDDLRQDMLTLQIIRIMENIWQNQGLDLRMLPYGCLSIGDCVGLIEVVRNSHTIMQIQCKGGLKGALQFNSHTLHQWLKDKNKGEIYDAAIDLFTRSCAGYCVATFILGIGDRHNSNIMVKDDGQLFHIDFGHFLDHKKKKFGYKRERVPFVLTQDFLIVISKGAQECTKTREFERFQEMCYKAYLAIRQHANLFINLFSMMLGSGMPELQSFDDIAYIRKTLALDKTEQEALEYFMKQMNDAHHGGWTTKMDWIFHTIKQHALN
- Sequence (P27986 whole entry partner): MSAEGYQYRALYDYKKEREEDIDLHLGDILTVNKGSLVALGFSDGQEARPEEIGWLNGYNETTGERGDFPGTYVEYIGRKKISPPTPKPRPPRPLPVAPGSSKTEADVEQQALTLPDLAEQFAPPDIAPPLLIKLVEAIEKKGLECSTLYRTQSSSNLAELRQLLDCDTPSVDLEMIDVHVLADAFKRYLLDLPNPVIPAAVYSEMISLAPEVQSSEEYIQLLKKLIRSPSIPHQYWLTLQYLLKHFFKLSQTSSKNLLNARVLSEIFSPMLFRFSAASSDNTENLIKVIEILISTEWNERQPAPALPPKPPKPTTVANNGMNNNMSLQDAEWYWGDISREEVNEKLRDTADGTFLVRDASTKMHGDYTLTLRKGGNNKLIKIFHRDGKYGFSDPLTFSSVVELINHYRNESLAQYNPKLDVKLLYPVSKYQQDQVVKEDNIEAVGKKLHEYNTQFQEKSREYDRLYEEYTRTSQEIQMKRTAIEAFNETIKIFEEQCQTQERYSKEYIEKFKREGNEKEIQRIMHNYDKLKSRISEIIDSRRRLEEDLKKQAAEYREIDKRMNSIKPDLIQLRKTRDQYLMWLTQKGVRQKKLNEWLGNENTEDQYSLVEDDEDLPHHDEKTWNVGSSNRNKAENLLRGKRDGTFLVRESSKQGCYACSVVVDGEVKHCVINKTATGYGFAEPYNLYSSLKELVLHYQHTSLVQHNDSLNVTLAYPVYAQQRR
- test.protocol: PI3Kα enzymatic test by measuring the consumption of ATP
- Format: biochemical
- Method: Model 2: PI3Kα Enzymatic Test by Measuring the Consumption of ATP. The test uses a lucifeurerin/luciferase system to measure the concentration of ATP and its consumption during the enzymatic reaction. The test is performed in 96-well format (Corning/Costar 96 black flat-bottomed half-wells plate, ref. 3694) in a total volume of 30 μl. […] The IC50 values are determined by the preparation of successive threefold dilutions on at least a scale of 10 000.

{"compound": "CCN1CC(C)(C)Oc2nc(N3CC4CCC(C3)O4)nc(-c3ccc(NC(=O)NC4COC4)c(F)c3)c2C1=O", "result.modifier": ">", "PI3Ka IC50 / µM": 10}
{"compound": "CCN1CC(C)(C)Oc2nc(N3CCOC[C@@H]3C)nc(-c3ccc(NC(=O)Nc4ccnc(C)c4)c(F)c3)c2C1=O", "result.modifier": "=", "PI3Ka IC50 / µM": 0.174}
{"compound": "CCN1CC(C)(C)Oc2nc(N3CC4CCC(C3)O4)nc(-c3ccc(NC(=O)Nc4cccc(OC)c4)cc3)c2C1=O", "result.modifier": "=", "PI3Ka IC50 / µM": 3.646}
{"compound": "CNC(=O)Nc1ccc(-c2nc(N3CC4CCC(C3)O4)nc3c2C(=O)N(C)CC(C)(C)O3)cc1F", "result.modifier": "=", "PI3Ka IC50 / µM": 4}
{"compound": "CCN1CC(C)(C)Oc2nc(N3CC4CCC(C3)O4)nc(-c3ccc(NC(=O)NCC4CCOCC4)c(F)c3)c2C1=O", "result.modifier": ">", "PI3Ka IC50 / µM": 10}
{"compound": "CCN1CC(C)(C)Oc2nc(N3CC4CCC(C3)O4)nc(-c3ccc(NC(=O)NCC4CCN(C)CC4)c(F)c3)c2C1=O", "result.modifier": ">", "PI3Ka IC50 / µM": 10}
{"compound": "CNC(=O)Nc1ccc(-c2nc(N3CC4CCC(C3)O4)nc3c2C(=O)N(C)CC(C)(C)O3)cc1", "result.modifier": "=", "PI3Ka IC50 / µM": 3.45}
{"compound": "CCN1CC(C)(C)Oc2nc(N3C4CCC3COC4)nc(-c3ccc(NC(=O)NC)c(F)c3)c2C1=O", "result.modifier": ">", "PI3Ka IC50 / µM": 10}
{"compound": "CCN1CC(C)(C)Oc2nc(N3CCOC[C@@H]3C)nc(-c3ccc(NC(=O)OCC(C)(C)O)cc3)c2C1=O", "result.modifier": ">", "PI3Ka IC50 / µM": 10}
{"compound": "CCN1CC(C)(C)Oc2nc(N3CC4CCC(C3)O4)nc(-c3ccc(NC(=O)Nc4ccncc4)cc3F)c2C1=O", "result.modifier": ">", "PI3Ka IC50 / µM": 10}
{"compound": "CCN1CC(C)(C)Oc2nc(N3CCOC[C@@H]3C)nc(-c3ccc(NC(=O)Nc4ccc(C)cn4)cc3)c2C1=O [Example 169]", "result.modifier": "=", "PI3Ka IC50 / µM": 1.45}
{"compound": "CCN1CC(C)(C)Oc2nc(N3CCOC[C@@H]3C)nc(-c3ccc(NC(=O)Nc4ccc(C)cn4)cc3)c2C1=O [Example 168]", "result.modifier": "=", "PI3Ka IC50 / µM": 1.385}
{"compound": "Cc1cc(NC(=O)Nc2ccc(-c3nc(N4C5CCC4COC5)nc4c3C(=O)N(C)CC(C)(C)O4)cc2F)ccn1", "result.modifier": "=", "PI3Ka IC50 / µM": 4.2}
{"compound": "CCN1CC(C)(C)Oc2nc(N3CCOC[C@@H]3C)nc(-c3ccc(NC(=O)Nc4ccc(C(=O)NCC(C)(C)O)cc4)cc3)c2C1=O", "result.modifier": "=", "PI3Ka IC50 / µM": 0.098}
{"compound": "CCN1CC(C)(C)Oc2nc(N3CC4CCC(C3)O4)nc(-c3ccc(NC(=O)Nc4ccnc(N5CC6CCC(C5)O6)c4)c(F)c3)c2C1=O", "result.modifier": ">", "PI3Ka IC50 / µM": 10}
{"compound": "CCN1CC(C)(C)Oc2nc(N3CC4CCC(C3)O4)nc(-c3ccc(NC(=O)Nc4ccc(C#N)nc4)c(F)c3)c2C1=O", "result.modifier": "=", "PI3Ka IC50 / µM": 7.2}
{"compound": "CCN1CC(C)(C)Oc2nc(N3CC4CCC(C3)O4)nc(-c3ccc(NC(=O)NC4CC4)c(F)c3)c2C1=O", "result.modifier": ">", "PI3Ka IC50 / µM": 10}
{"compound": "C[C@H]1COCCN1c1nc2c(c(-c3ccc(NC(=O)Nc4ccon4)c(F)c3)n1)C(=O)N(C1CCOCC1)CC(C)(C)O2", "result.modifier": "=", "PI3Ka IC50 / µM": 1.14}
{"compound": "CCC(=O)Nc1ccc(-c2nc(N3CC4CCC(C3)O4)nc3c2C(=O)N(CC)CC(C)(C)O3)cc1", "result.modifier": ">", "PI3Ka IC50 / µM": 10}
{"compound": "CCN1CC(C)(C)Oc2nc(N3CCOC[C@@H]3C)nc(-c3ccc(NC(=O)Nc4cnccn4)c(F)c3)c2C1=O", "result.modifier": "=", "PI3Ka IC50 / µM": 4.9}
{"compound": "CCN1CC(C)(C)Oc2nc(N3CC4CCC(C3)O4)nc(-c3ccc(NC(=O)NCCF)cc3)c2C1=O", "result.modifier": "=", "PI3Ka IC50 / µM": 3.627}
{"compound": "CN1CC(C)(C)Oc2nc(N3CC4CCC(C3)O4)nc(-c3ccc(NC(=O)Nc4ccc(N5C6CCC5COC6)nc4)c(F)c3)c2C1=O", "result.modifier": ">", "PI3Ka IC50 / µM": 10}
{"compound": "CN1CC(C)(C)Oc2nc(N3C4CCC3COC4)nc(-c3ccc(NC(=O)Nc4ccccn4)cc3)c2C1=O", "result.modifier": ">", "PI3Ka IC50 / µM": 10}
{"compound": "CCN1CC(C)(C)Oc2nc(N3CC4CCC(C3)O4)nc(-c3ccc(NC(=O)Nc4ccc(OCCOC)cn4)cc3)c2C1=O", "result.modifier": ">", "PI3Ka IC50 / µM": 10}
{"compound": "CCN1CC(C)(C)Oc2nc(N3CC4CCC(C3)O4)nc(-c3ccc(NC(=O)Nc4ccc(OC5CCN(C)CC5)nc4)c(F)c3)c2C1=O", "result.modifier": "=", "PI3Ka IC50 / µM": 3.07}
{"compound": "CCN1CC(C)(C)Oc2nc(N3CC4CCC(C3)O4)nc(-c3ccc(NC(=O)Nc4cc(C)on4)cc3)c2C1=O", "result.modifier": "=", "PI3Ka IC50 / µM": 4.31}
{"compound": "CCN1CC(C)(C)Oc2nc(N3CC4CCC(C3)O4)nc(-c3ccc(NC(=O)Nc4ccc(N5CCOC[C@H]5C)nc4)c(F)c3)c2C1=O", "result.modifier": ">", "PI3Ka IC50 / µM": 10}

* * *

- target.system: PI3Kα (p110α/p85α) (Homo sapiens (Human), UniProt P42336)
- test.protocol: PI3Kα enzymatic test by measuring the consumption of ATP
- Type: biochemical
property: PI3Ka IC50

{"molecular.string": "CCN1CC(C)(C)Oc2nc(N3CC4CCC(C3)O4)nc(-c3ccc(NC(=O)Nc4ccnc(N5CCN(S(C)(=O)=O)CC5)c4)c(F)c3)c2C1=O", "property": "PI3Ka IC50", "result": ">10 µM"}
{"molecular.string": "CCN1CC(C)(C)Oc2nc(N3CC4CCC(C3)O4)nc(-c3ccc(NC(=O)Nc4cnn(C)c4)c(F)c3)c2C1=O", "property": "PI3Ka IC50", "result": "3.18 µM"}
{"molecular.string": "CCN1CC(C)(C)Oc2nc(N3CC4CCC(C3)O4)nc(-c3ccc(NC(=O)Nc4ccc(N5CCOC[C@@H]5C)nc4)c(F)c3)c2C1=O", "property": "PI3Ka IC50", "result": ">10 µM"}
{"molecular.string": "CCN1CC(C)(C)Oc2nc(N3C4CCC3COC4)nc(-c3ccc(NC(=O)Nc4ccc(C)nc4)c(F)c3)c2C1=O", "property": "PI3Ka IC50", "result": ">10 µM"}
{"molecular.string": "CCNC(=O)Nc1ccc(-c2nc(N3CCOC[C@@H]3C)nc3c2C(=O)N(CC)CC(C)(C)O3)cc1", "property": "PI3Ka IC50", "result": "1.138 µM"}
{"molecular.string": "CCN1CC(C)(C)Oc2nc(N3CC4CCC(C3)O4)nc(-c3ccc(NC(=O)Nc4ccc(C(F)(F)F)cc4F)cc3)c2C1=O", "property": "PI3Ka IC50", "result": ">10 µM"}
